Test: Growth inhibition of human U937 cells at 3 mM
Type: cell-based, U-937

{"compound": "C[C@@H]1CC[C@H]2[C@@H](C)C(=O)O[C@@H]3O[C@@]4(C)CC[C@@H]1[C@]32OO4 [ARTEMISININ]", "inhibition at 3000 µM": "< 5%"}

###

Test system: Leishmania donovani
Assay: Growth inhibition of Leishmania donovani promastigotes after 72 hrs by Alamar blue assay
Assay type: functional, organism-based
List of IC50 values.

{"molecule": "C[C@@H]1O[C@@H](O[C@H]2C[C@@H](O)[C@]3(CO)[C@H]4[C@H](O)C[C@]5(C)[C@@H](C6=CC(=O)OC6)CC[C@]5(O)[C@@H]4CC[C@]3(O)C2)[C@H](O)[C@H](O)[C@H]1O", "signQualifier": ">", "IC50, µM": 450}
{"molecule": "C[C@@H]1CC[C@H]2[C@@H](C)C(=O)O[C@@H]3O[C@@]4(C)CC[C@@H]1[C@]32OO4", "signQualifier": "=", "IC50, µM": 30.8}
{"molecule": "N=C(N)c1ccc(OCCCCCOc2ccc(C(=N)N)cc2)cc1", "signQualifier": "=", "IC50, µM": 1}
{"molecule": "C/C=C(/C)C(=O)O[C@H]1C(C)=C2[C@H]([C@@H]1OC(=O)CCCCCCC)[C@@](C)(OC(C)=O)C[C@H](OC(=O)CCC)[C@@]1(O)[C@H]2OC(=O)[C@@]1(C)O", "signQualifier": "=", "IC50, µM": 28.1}
{"molecule": "COc1ccc2[nH]c([S+]([O-])Cc3ncc(C)c(OC)c3C)nc2c1 (configuration not stated)", "signQualifier": "=", "IC50, µM": 340}
{"molecule": "C[C@H]1[C@H](N2CCS(=O)(=O)CC2)O[C@@H]2O[C@@]3(C)CC[C@H]4[C@H](C)CC[C@@H]1[C@@]24OO3", "signQualifier": "=", "IC50, µM": 12.9}
{"molecule": "C[C@@H]1[C@H](O)[C@@H](C)/C=C/C=C/C=C/C=C/C=C/C=C/C=C/[C@H](O[C@@H]2O[C@H](C)[C@@H](O)[C@H](N)[C@@H]2O)C[C@@H]2O[C@](O)(C[C@@H](O)C[C@@H](O)[C@H](O)CC[C@@H](O)C[C@@H](O)CC(=O)O[C@H]1C)C[C@H](O)[C@H]2C(=O)O", "signQualifier": "=", "IC50, µM": 2.8}
